What # Sites in PHH (off-target integration sites detected) was measured for each of the following?
- System: potential off-target genomic sites
- ASSAY COMMENT: Off-target analysis by oligo insertion based assay in primary human hepatocytes (sgRNAs)
- Format: cell-based
- CONDITIONS: 100 ng Cas9 mRNA, 25 nM sgRNA, 12.5 nM donor oligo, 48 h
Strand notation (5' to 3'): a small letter for the sugar, then the base; units joined by * are phosphorothioate-linked, units joined directly phosphodiester-linked; [ ] holds rarer units or linkages, { } end groups; capitals alone tell only the bases. m = 2'-O-methyl; r = 2'-OH (RNA)
Respond numerically, and do not add a unit to the figure.

Record request: # Sites in PHH (off-target integration sites detected) value, item G000491: TTR sgRNA modified sequence, Human, SEQ ID NO: 98; guide sequence of CR003338 (nucleic acid) guide: mA*mU*mA*rCrCrArGrUrCrCrArGrCrArArGrGrCrArGrGrUrUrUrUrArGrAmGmCmUmAmGmAmAmAmUmAmGmCrArArGrUrUrArArArArUrArArGrGrCrUrArGrUrCrCrGrUrUrArUrCrAmAmCmUmUmGmAmAmAmAmAmGmUmGmGmCmAmCmCmGmAmGmUmCmGmGmUmGmCmU*mU*mU*mU
7

Now consider G000497: TTR sgRNA modified sequence, Human, SEQ ID NO: 104; guide sequence of CR003335 (nucleic acid) guide: mC*mU*mG*rCrUrCrCrUrCrCrUrCrUrGrCrCrUrUrGrCrGrUrUrUrUrArGrAmGmCmUmAmGmAmAmAmUmAmGmCrArArGrUrUrArArArArUrArArGrGrCrUrArGrUrCrCrGrUrUrArUrCrAmAmCmUmUmGmAmAmAmAmAmGmUmGmGmCmAmCmCmGmAmGmUmCmGmGmUmGmCmU*mU*mU*mU .
3

Now consider G000480: TTR sgRNA modified sequence, Human, SEQ ID NO: 87; guide sequence of CR003353 (nucleic acid) guide: mA*mA*mA*rGrGrCrUrGrCrUrGrArUrGrArCrArCrCrUrGrUrUrUrUrArGrAmGmCmUmAmGmAmAmAmUmAmGmCrArArGrUrUrArArArArUrArArGrGrCrUrArGrUrCrCrGrUrUrArUrCrAmAmCmUmUmGmAmAmAmAmAmGmUmGmGmCmAmCmCmGmAmGmUmCmGmGmUmGmCmU*mU*mU*mU .
2

Now consider G000572: TTR sgRNA modified sequence, Human, SEQ ID NO: 113; guide sequence of CR003385 (nucleic acid) guide: mC*mC*mC*rCrUrArCrUrCrCrUrArUrUrCrCrArCrCrArGrUrUrUrUrArGrAmGmCmUmAmGmAmAmAmUmAmGmCrArArGrUrUrArArArArUrArArGrGrCrUrArGrUrCrCrGrUrUrArUrCrAmAmCmUmUmGmAmAmAmAmAmGmUmGmGmCmAmCmCmGmAmGmUmCmGmGmUmGmCmU*mU*mU*mU .
2

Now consider G000481: TTR sgRNA modified sequence, Human, SEQ ID NO: 88; guide sequence of CR003345 (nucleic acid, sugars from the 5' end m3 r25 m12 r28 m32, backbone not given here; further chemistry not fully specified) guide: UCUAGAACUUUGACCAUCAGGUUUUAGAGCUAGAAAUAGCAAGUUAAAAUAAGGCUAGUCCGUUAUCAACUUGAAAAAGUGGCACCGAGUCGGUGCUUUU .
0

Now consider G000484: TTR sgRNA modified sequence, Human, SEQ ID NO: 91; guide sequence of CR003367 (nucleic acid) guide: mA*mG*mA*rCrArCrCrArArArUrCrUrUrArCrUrGrGrArGrUrUrUrUrArGrAmGmCmUmAmGmAmAmAmUmAmGmCrArArGrUrUrArArArArUrArArGrGrCrUrArGrUrCrCrGrUrUrArUrCrAmAmCmUmUmGmAmAmAmAmAmGmUmGmGmCmAmCmCmGmAmGmUmCmGmGmUmGmCmU*mU*mU*mU .
0
